Quick reference for normalized growth among some compounds
# TEST_DETAILS: chemical genetic growth profiling, strain panel (AID 1159580);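 further: tested at 20 µM; growth read once vehicle control cultures reached saturation at 30 °C; 1 = growth at the plate median or of vehicle wells; lower values mean less growth of the strain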
# EXPERIMENTAL_CONTEXT: S. cerevisiae deletion strains, growth OD, locus YJL168C, strain set2, hits give low values
Among all 5,500 compounds or so, about 2,000 (36%) were called active. Not shown: some 18% with an inconclusive outcome. The list shows a part of the results.

{"COMPOUND": "CCN(CC)CCOC(=O)C(c1ccccc1)c1ccccc1", "normalized growth": 1}
{"COMPOUND": "O=C(O)Cc1cc(I)c(Oc2cc(I)c(O)c(I)c2)c(I)c1", "normalized growth": 0.942}
{"COMPOUND": "N[C@H](Cc1cc(I)c(Oc2ccc(O)c(I)c2)c(I)c1)C(=O)O", "normalized growth": 0.996}
{"COMPOUND": "O=C(O)c1ccccc1C(=O)Nc1ccc(S(=O)(=O)Nc2nccs2)cc1", "normalized growth": 0.993}
{"COMPOUND": "CCCC(C(=O)OCCN(CC)CC)(c1ccccc1)c1ccccc1", "normalized growth": 0.992}
{"COMPOUND": "CCN(CC)C(C)CN1c2ccccc2Sc2ccccc21 (stereo not drawn)", "normalized growth": 0.961}
{"COMPOUND": "CC1CC2C3CC(F)C4=CC(=O)C=CC4(C)C3(F)C(O)CC2(C)C1C(=O)COC(=O)C(C)(C)C (stereo not drawn)", "normalized growth": 1.01}
{"COMPOUND": "N[C@H](Cc1ccccc1)C(=O)O", "normalized growth": 0.992}
{"COMPOUND": "N[C@@H](Cc1cc(I)c(Oc2ccc(O)c(I)c2)c(I)c1)C(=O)O", "normalized growth": 1}
{"COMPOUND": "CSc1ccc2c(c1)N(CCC1CCCCN1C)c1ccccc1S2 (stereo not drawn)", "normalized growth": 0.098}
{"COMPOUND": "CCC(=O)c1ccc2c(c1)N(CC(C)N(C)C)c1ccccc1S2 (stereo not drawn)", "normalized growth": 1}
{"COMPOUND": "CC1=C2[C@H]3OC(=O)[C@@H](C)[C@@H]3CC[C@@]2(C)C=CC1=O", "normalized growth": 1.02}
{"COMPOUND": "CN1CCN(C2=Nc3ccccc3Oc3ccc(Cl)cc32)CC1", "normalized growth": 0.991}

---

Recorded normalized growth for the following compounds
# TEST_DETAILS: chemical genetic growth profiling, strain panel (AID 1159580);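 further: tested at 20 µM; growth read once vehicle control cultures reached saturation at 30 °C; 1 = growth at the plate median or of vehicle wells; lower values mean less growth of the strain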
# EXPERIMENTAL_CONTEXT: S. cerevisiae deletion strains, growth OD, locus YBL061C, strain skt5, hits give low values
The whole screen tested about 5,500 compounds, of which about 2,000 (36%) were called active. Inconclusive results (about 18%) are left out. The list shows a part of the results.

{"COMPOUND": "CN(CCC(N)CC(=O)N[C@H]1C=CC(n2ccc(N)nc2=O)O[C@@H]1C(=O)O)C(=N)N (stereo partly specified)", "normalized growth": 0.938}
{"COMPOUND": "CC[C@H](CCC(C)[C@H]1CCC2C3CCC4C[C@@H](O)CC[C@]4(C)C3CC[C@@]21C)C(C)C (stereo partly specified)", "normalized growth": 0.988}
{"COMPOUND": "COC(=O)CCC(C)[C@H]1CCC2C3C(C[C@H](O)[C@@]21C)[C@@]1(C)CC[C@@H](O)C[C@H]1C[C@H]3O (stereo partly specified)", "normalized growth": 1.01}
{"COMPOUND": "C[C@@H]1CC2C3C[C@H](F)C4=CC(=O)C=C[C@]4(C)[C@@]3(F)[C@@H](O)C[C@]2(C)[C@@]1(O)C(=O)COC(=O)C(C)(C)C (stereo partly specified)", "normalized growth": 0.994}
{"COMPOUND": "CC(=O)Nc1nnc(S(N)(=O)=O)s1", "normalized growth": 1.01}
{"COMPOUND": "Nc1cc(-c2ccncc2)c[nH]c1=O", "normalized growth": 0.899}
{"COMPOUND": "C=C[C@H]1CN2CC[C@H]1C[C@@H]2[C@H](O)c1ccnc2ccccc12", "normalized growth": 0.992}
{"COMPOUND": "CC(CCC(=O)O)[C@H]1CCC2C3CC[C@@H]4CCCC[C@]4(C)C3CC[C@@]21C (stereo partly specified)", "normalized growth": 1.02}
{"COMPOUND": "CC(CCC(=O)O)[C@H]1CCC2C3C(C[C@H](O)[C@@]21C)[C@@]1(C)CC[C@@H](O)C[C@H]1C[C@H]3O (stereo partly specified)", "normalized growth": 1}
{"COMPOUND": "c1ccc2nc(N3CCNCC3)ccc2c1", "normalized growth": 1.01}
{"COMPOUND": "Nc1ccncc1", "normalized growth": 0.99}
{"COMPOUND": "CN(C)N=Nc1nc[nH]c1C(N)=O", "normalized growth": 0.976}
{"COMPOUND": "COC(=O)CCC(C)C1CCC2C3CC[C@@H]4C[C@H](O)CC[C@]4(C)C3C[C@H](O)[C@]12C (stereo partly specified)", "normalized growth": 0.9}
{"COMPOUND": "CN1CCN(C2=Nc3ccccc3Oc3ccc(Cl)cc32)CC1", "normalized growth": 0.982}
{"COMPOUND": "COc1cc([C@H]2Oc3cc([C@H]4Oc5cc(O)cc(O)c5C(=O)[C@@H]4O)ccc3O[C@@H]2CO)ccc1O", "normalized growth": 1.01}
{"COMPOUND": "C[C@@H]1CC2C3CCC4=CC(=O)C=C[C@]4(C)[C@@]3(F)[C@@H](O)C[C@]2(C)[C@H]1C(=O)CO (stereo partly specified)", "normalized growth": 0.999}
